- protocol-notes: self-splicing fitness, log relative to wild type (ln ratio); higher = more splicing; Tetrahymena group I intron in knt gene, E. coli kanamycin selection, DiMSum; sequences stand for … in CUCUCU…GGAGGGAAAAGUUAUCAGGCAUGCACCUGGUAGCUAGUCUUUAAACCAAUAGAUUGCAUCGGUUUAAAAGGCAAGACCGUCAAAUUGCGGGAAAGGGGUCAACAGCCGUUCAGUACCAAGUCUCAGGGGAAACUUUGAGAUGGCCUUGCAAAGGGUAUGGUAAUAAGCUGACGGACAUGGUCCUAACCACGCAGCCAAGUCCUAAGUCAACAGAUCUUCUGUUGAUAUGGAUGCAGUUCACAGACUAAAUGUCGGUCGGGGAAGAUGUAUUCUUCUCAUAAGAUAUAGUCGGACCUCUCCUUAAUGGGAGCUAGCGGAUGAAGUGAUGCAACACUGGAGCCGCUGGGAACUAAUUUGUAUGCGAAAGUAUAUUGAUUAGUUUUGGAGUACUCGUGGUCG;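 note: selection with 25 µg/mL kanamycin versus none on LB agar overnight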
- experimental-setup: 37 °C
Give t when the value for self-splicing fitness (ln) is at least -2. Give f when it is less.

Exam item: Entry AUAUAGCAAUAUUACGCCGG : is its self-splicing fitness (ln) no less than -2?
Marked response: t

Exam item: Entry GAAUAGCAAUAUUACGUAGG : is its self-splicing fitness (ln) no less than -2?
Marked response: f

* * *

- protocol-notes: self-splicing fitness, log relative to wild type (ln ratio); higher = more splicing; Tetrahymena group I intron in knt gene, E. coli kanamycin selection, DiMSum; sequences stand for … in CUCUCU…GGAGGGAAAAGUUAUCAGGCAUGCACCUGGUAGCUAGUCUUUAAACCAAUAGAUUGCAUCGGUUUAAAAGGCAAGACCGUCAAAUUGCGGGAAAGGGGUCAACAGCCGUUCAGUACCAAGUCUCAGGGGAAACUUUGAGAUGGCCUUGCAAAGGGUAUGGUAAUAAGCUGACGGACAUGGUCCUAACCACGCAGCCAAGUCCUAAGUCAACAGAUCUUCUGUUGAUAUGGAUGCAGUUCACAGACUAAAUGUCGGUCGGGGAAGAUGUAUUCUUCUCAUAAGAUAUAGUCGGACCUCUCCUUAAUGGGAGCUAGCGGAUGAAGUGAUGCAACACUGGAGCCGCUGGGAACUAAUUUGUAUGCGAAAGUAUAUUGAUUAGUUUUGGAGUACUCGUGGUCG
- experimental-setup: 37 °C
Field: self-splicing fitness (ln). Provide a value for each of the sequences that follow.
One number for each entry.

Some sequences with recorded self-splicing fitness (ln):
ACGGAGCAAUAUUACGGUUU | -3.31
AUCAAGCAAUAUUACGGAUU | -1.2
ACACAGCAAUAUUACGAGCG | -0.104
CUCCAGCAAUAUUACGUGAC | -2.98
UUCAAGCAAUAUUACGCGUC | -0.969
UCACAGCAAUAUUACGCCGA | 0.184
AGUUAGCAAUAUUACGAGCC | -1.12

Exam item: Suppose we examine the sequence AUUCAGCAAUAUUACGAUGA ; what self-splicing fitness (ln) value has been reported?
Marked response: -0.36

* * *

- protocol-notes: self-splicing fitness, log relative to wild type (ln ratio); higher = more splicing; Tetrahymena group I intron in knt gene, E. coli kanamycin selection, DiMSum; sequences stand for … in CUCUCU…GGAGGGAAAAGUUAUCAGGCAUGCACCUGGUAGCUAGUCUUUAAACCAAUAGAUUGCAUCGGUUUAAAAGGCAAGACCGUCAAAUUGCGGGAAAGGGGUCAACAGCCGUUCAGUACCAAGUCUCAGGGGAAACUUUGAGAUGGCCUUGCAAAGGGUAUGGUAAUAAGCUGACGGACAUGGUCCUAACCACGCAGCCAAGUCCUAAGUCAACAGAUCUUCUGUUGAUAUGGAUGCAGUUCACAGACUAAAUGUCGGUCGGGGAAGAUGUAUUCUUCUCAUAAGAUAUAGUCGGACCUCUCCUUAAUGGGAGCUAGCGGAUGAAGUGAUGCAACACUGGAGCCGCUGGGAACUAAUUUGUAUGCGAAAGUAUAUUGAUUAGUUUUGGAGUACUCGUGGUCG
- experimental-setup: 30 °C
Give Yes when the value for self-splicing fitness (ln) is at least -2. Give No when it is less.

Consider the worked cases shown below.
GCCAAGCAAUAUUACGGACC | No
GCUUAGCAAUAUUACGUGUA | Yes
UUGUAGCAAUAUUACGUGAC | No
CGAUAGCAAUAUUACGUAGG | Yes
CACUAGCAAUAUUACGGUCU | Yes
UGUGAGCAAUAUUACGGGGC | No

Exam item: Entry CGGCAGCAAUAUUACGGGCA : is its self-splicing fitness (ln) no less than -2?
Marked response: No

Exam item: Entry UUGCAGCAAUAUUACGAACA : is its self-splicing fitness (ln) no less than -2?
Marked response: Yes

Exam item: Entry UUAUAGCAAUAUUACGGUCG : is its self-splicing fitness (ln) no less than -2?
Marked response: Yes
